Measured values drawn from paper PMC9854728 for this set.

Target: soybean lipoxygenase (LOX) (Glycine max, UniProt P08170)
Construct: purchased Aldrich Chemical Co. (Milwaukee, WI, USA)
Sequence (P08170 1-839): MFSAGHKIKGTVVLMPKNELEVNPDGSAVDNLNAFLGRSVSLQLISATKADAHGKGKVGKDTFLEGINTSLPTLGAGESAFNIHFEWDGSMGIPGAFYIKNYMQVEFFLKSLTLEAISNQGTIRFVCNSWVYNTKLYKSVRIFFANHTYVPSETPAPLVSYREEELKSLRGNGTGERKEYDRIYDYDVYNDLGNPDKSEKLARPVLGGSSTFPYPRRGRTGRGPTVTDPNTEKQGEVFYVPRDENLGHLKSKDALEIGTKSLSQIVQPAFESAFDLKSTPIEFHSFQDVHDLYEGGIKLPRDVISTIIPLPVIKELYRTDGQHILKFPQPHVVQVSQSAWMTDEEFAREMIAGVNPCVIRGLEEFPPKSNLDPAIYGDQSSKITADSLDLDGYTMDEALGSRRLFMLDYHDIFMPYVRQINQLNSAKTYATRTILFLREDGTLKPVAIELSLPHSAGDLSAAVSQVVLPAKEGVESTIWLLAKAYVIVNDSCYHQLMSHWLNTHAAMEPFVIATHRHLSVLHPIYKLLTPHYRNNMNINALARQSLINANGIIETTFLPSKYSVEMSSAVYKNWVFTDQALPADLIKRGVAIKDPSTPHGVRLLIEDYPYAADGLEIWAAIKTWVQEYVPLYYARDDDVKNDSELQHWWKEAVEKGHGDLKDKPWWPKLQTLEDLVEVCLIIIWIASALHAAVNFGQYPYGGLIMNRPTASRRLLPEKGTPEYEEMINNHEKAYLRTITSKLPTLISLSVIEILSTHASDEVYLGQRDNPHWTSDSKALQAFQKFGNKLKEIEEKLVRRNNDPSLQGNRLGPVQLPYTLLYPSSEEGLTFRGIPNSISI
Test: In vitro inhibition of soybean lipoxygenase (LOX)
Type: biochemical
Details: tested at 100 µM; no = no activity under the experimental conditions
Description: The in vitro antioxidant assays for nitrones 8 and 9 were performed concentrations of 100 µM (from a stock solution 10 mM in 0.1% DMSO in deionized water). Several dilutions were made when the determination of IC50 values was needed. […] The nitrones were diluted under sonification in the appropriate buffer in several dilutions (Table 1). The in vitro study was evaluated as reported previously. […] The conversion of sodium linoleate to 13-hydroperoxylinoleic acid was recorded at 234 nm. […]
Each entry below carries its reported inhibition at 100 µM.

- compound: "C[N+]([O-])=CCn1cc(-c2cccc(F)c2)nn1 [Nitrone 8c]"
  inhibition at 100 µM, %: 40
- compound: "CC(C)(C)[N+]([O-])=CCn1cc(-c2ccccc2)nn1 [Nitrone 9a]"
  inhibition at 100 µM, %: 44
- compound: "Cc1cc(-c2cn(CC=[N+](C)[O-])nn2)ccc1F [Nitrone 8f]"
  inhibition at 100 µM, %: 44
- compound: "C[N+]([O-])=CCn1cc(-c2ccccc2F)nn1 [Nitrone 8b]"
  inhibition at 100 µM, %: 24
